# system: UniProt P10809
# Sequence (P10809 27-573): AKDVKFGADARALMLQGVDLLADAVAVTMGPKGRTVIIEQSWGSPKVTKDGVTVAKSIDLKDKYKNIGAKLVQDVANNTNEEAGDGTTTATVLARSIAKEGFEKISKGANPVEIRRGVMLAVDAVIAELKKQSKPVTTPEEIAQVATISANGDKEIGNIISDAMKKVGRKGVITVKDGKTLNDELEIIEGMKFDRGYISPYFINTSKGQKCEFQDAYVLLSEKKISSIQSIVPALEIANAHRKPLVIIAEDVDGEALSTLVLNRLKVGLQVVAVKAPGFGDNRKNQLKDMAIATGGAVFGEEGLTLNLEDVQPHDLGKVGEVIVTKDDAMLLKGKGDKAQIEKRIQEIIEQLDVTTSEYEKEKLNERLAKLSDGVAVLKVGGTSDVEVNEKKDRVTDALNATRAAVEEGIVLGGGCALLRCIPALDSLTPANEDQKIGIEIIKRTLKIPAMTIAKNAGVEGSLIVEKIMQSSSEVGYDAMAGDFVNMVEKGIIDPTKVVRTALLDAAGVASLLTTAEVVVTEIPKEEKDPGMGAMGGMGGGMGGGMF
# procedure.details: Tryptophan fluorescence quenching assay
# condition.context: Stern-Volmer analysis; read-out: Kd of AGB binding to HSP60
measured.metric: Kd (µM)
Hi! Could you send only the number? It should be in µM, unit omitted.

-- ask Would you mind telling me what Kd value was observed for `CCCC(=O)c1c(O)c(Cc2c(O)c(Cc3c(O)c(C)c(OC)c(C(=O)CCC)c3O)c(O)c(C(=O)[C@@H](C)CC)c2O)c(O)c(C)c1OC` ?
-- reply 27

###

# Tested on: human cancer cell lines (MDA-MB-231, MCF-7, HepG2, HeLa, AGS, HCT116, SW480, SUNE-1, H460, HCC827, H1650, A549)
# procedure.details: MTT cell viability assay, panel of human cancer cell lines
# Type: cell-based
# condition.context: Homo sapiens; 48-h treatment, range over tested cancer cell lines; read-out: IC50 values for the tested cancer cell lines
pIC50: −log10 of the molar value.
measured.metric: pIC50

-- ask Fill blank: measured pIC50 of the compound `CCCC(=O)c1c(O)c(Cc2c(O)c(Cc3c(O)c(C)c(OC)c(C(=O)CCC)c3O)c(O)c(C(=O)[C@@H](C)CC)c2O)c(O)c(C)c1OC` is ____.
-- reply 5.24 to 5.74
